Conditions: traditional octanol water partition coefficient determination
Reported log P by item:
Response field accepts a number only; no unit should be typed.

>>> val("O=C(CCCCCCC(=O)NC1=CC=CC=CC=C1)NO")
1.38
>>> val("CC1(O)CC(C2=CC=CC=CC=C2)c2c(c3ccccc3oc2=O)O1 (centres unmarked)")
2.82
>>> val("O=C(OCc1ccccc1)C1=CC=CC=CC=C1")
3.34
>>> val("O=C(CCCCCCC(=O)NC12C3C4C5C3C1C5C42)NO (centres unmarked)")
1.52

Which log P value belongs to O=C(CCCCCCC(=O)Nc1ccccc1)NO [compound 11, suberanilohydroxamic acid, reference compound] ?
0.99
